targetOfAssay: Protein S100-A4 (Homo sapiens)
assayInfo: inhibitors of S100A4-myosin IIA peptide binding, primary screen, biochemical, fluorescence polarization, TAMRA-MyoIIA peptide (AID 652163)
runParameters: at 10.7 µM, active compounds read high
The campaign covered roughly 360,000 compounds. About 500 (0.14%) were called active. The entries come from a sample that favours actives as a whole.
Listed here are compounds together with their documented inhibition.
Numbers only here, please. The scale is %.

Worked set:
O=C(c1cnccn1)N1CC(=O)N2[C@H](C1)[C@@H](c1ccc(C#CC3CCCC3)cc1)[C@@H]2CO | -1.65
CCOc1ccc(N(CC(=O)NCCc2ccc(F)cc2)S(=O)(=O)c2ccccc2)cc1 | -1.04
COCC#Cc1ccc2c(c1)O[C@H](CN(C)CC1CC1)[C@H](C)CN([C@H](C)CO)S2(=O)=O | 4.13

Request: Tell me the measured inhibition of `O=C(Cc1ccccc1)N1C[C@H]2[C@@H](c3ccccc31)[C@H](CO)N2C(=O)c1ccc(F)cc1` , please.
Result: 7.78

Request: Tell me the measured inhibition of `CCCNC(=O)N[C@@H]1C=C[C@H](CC(=O)NC2CCC2)O[C@H]1CO` , please.
Result: 10

Request: Tell me the measured inhibition of `COc1ccccc1-c1cnc2c(c1)C(=O)N([C@@H](C)CO)C[C@H](C)[C@H](CN(C)CC1CCOCC1)O2` , please.
Result: -4.73

Request: Tell me the measured inhibition of `C[C@@H]1CN([C@@H](C)CO)C(=O)c2cc(C3=CCCC3)cnc2O[C@H]1CN(C)Cc1ccccc1F` , please.
Result: 0.298

Request: Tell me the measured inhibition of `C[C@H](CO)N1C[C@H](C)[C@@H](CN(C)C(=O)NC2CCCCC2)Oc2ccc(NC(=O)c3ccncc3)cc2CC1=O` , please.
Result: 5.06

Request: Tell me the measured inhibition of `Cc1ccc(S(=O)(=O)N(C)C[C@H]2Oc3ccc(NC(=O)Cc4cn(C)c5ccccc45)cc3CC(=O)N([C@@H](C)CO)C[C@H]2C)cc1` , please.
Result: 12.9

This collection of values is drawn from PubChem BioAssay AID652163.
